Catalogue of binders with associated koff
- system tested: T1, AAV5 (adeno-associated virus 5)
- T1 construct: also called adeno-associated virus serotype 5
- protocol description: SPR, AAV amine-coupled to CM5 chip;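 further: nanobodies flowed as analyte at seven concentrations spanning 1–100 nM over immobilized AAV (500–800 RU), kinetic constants derived by fitting the binding curves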
measured property: koff (s⁻¹)

binder | measured result
A4-098 (VHH) VHH: VQLQESGGGLVQPGGSLRLSCIASGSIFSINTMGWYRQAPGKQRELVATITRGGNTNYGDSVKGRFTISRDNAKNTVYLQMNTLRPEDTAVYYCHVDEIRESSWTTSNLWGQGTQVTVSS | 0.00117
A4-062 (VHH) VHH: VQLQESGGGLVQAGGSLRLSCAASGSSFSINAMGWYRQAPGKQRELVATVTRGGTTNYADSVKGRFTISRDNPKNTVYLQMNSLRPEDTAVYYCHLDEVRESSWTTSNLWGQGTQVTVSS | 1e-05
A4-080 (VHH) VHH: VQLQESGGGLVQPGGSLRLSCAASGSRFSLNTMGWYRQAPGKQRELVATVTRGGSTNYADFVKGRFTISRDNAKNTVYLQMNSLRPEDTAVYYCHVDELRESGWTTSNLWGQGTQVTVSS | 0.00194
A4-096 (VHH) VHH: VQLQESGGGLVQPGGSLRLSCIASGSSFSANTMGWYRQAPGKQRELVATITRGGNTNYGDSVKGRFTISRDNAKNTVYLQMNSLRPEDTAVYYCHIDEIRESTWTTSNLWGQGTQVTVSS | 0.00123

Entry source: patent US20260193326A1
